DC50 reference
target: SMARCA2-HiBiT HeLa cells (protein which is expressed from the SMARCA2 gene) (Homo sapiens); construct: protein which is expressed from the SMARCA2 and SMARCA4 genes; host or cells: HeLa (SMARCA2-HiBiT engineered line); assay: SMARCA2 degradation assay (HiBiT-fusion HeLa cell line, 24 h, luminescence); type: cell-based
Sequence (P51531 whole entry, the tested form may be a part): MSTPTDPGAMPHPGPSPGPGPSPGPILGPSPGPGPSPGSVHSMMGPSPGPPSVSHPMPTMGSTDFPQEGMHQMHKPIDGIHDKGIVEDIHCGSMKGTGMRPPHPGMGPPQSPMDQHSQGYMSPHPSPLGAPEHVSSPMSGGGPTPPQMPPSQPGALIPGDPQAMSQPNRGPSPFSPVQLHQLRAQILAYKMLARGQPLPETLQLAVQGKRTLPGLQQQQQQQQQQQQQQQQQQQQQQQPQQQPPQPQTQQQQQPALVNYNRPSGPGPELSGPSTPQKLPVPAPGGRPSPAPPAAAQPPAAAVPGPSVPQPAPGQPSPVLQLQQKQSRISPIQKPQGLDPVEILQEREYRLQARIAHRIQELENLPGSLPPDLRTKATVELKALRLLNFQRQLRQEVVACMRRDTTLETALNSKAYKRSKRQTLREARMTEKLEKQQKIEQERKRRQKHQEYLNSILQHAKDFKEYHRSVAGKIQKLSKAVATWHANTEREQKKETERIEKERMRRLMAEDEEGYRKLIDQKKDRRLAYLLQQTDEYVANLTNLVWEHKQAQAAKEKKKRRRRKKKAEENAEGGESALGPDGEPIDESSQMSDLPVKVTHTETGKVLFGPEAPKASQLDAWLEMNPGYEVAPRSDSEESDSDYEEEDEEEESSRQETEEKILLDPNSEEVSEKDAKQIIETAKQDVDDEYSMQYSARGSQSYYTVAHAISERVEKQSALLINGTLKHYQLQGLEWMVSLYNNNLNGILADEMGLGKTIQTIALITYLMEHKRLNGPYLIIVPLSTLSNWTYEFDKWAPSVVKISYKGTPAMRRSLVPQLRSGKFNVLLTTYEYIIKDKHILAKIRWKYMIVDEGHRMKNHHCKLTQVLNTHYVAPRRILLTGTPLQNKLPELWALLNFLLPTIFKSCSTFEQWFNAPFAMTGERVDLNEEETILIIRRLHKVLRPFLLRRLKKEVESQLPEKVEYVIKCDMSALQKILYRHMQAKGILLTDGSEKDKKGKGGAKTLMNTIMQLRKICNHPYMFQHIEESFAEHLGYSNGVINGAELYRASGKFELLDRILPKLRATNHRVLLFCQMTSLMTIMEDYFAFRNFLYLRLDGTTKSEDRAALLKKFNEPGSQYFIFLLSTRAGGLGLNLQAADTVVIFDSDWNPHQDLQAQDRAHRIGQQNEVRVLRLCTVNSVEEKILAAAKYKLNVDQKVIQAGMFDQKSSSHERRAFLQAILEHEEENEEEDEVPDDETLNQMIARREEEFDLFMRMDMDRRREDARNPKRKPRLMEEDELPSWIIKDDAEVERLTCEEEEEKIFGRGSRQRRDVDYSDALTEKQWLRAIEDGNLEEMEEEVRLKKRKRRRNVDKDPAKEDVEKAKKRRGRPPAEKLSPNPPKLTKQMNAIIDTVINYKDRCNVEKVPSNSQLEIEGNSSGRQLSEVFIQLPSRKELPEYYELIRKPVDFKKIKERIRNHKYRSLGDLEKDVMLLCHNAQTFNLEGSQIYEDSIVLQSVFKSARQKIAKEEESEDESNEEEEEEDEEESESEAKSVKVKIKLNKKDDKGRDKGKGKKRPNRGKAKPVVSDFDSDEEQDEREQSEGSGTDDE

Study these solved cases before continuing.
| compound | readoutType | experimentalValue |
| --- | --- | --- |
| CC(C)(C)OC(=O)NCC#Cc1nccc(N2CC3=C(C2)CN(c2cc(-c4ccccc4O)nnc2N)C3)n1 | DC50 | < 50 nM |
| C[C@@H]1CCN(c2cc(-c3ccccc3O)nnc2N)CCN1c1nc(C#CCn2cncn2)ncc1F | DC50 | 50 to 500 nM |
| C[C@@H]1CCN(c2cc(-c3ccccc3O)nnc2N)CCN1c1ccnc(C#CCn2cncn2)n1 | DC50 | 50 to 500 nM |
| CC(C)(C)OC(=O)NCC#Cc1cccc(N2CCCN(c3cc(-c4ccccc4O)nnc3N)CC2)n1 | DC50 | 500 to 5000 nM |
| CC(C)(C)OC(=O)N1CC(C#Cc2nccc(N3CCCN(c4cc(-c5ccccc5O)nnc4N)CC3)n2)C1 | DC50 | 50 to 500 nM |

Consider the compound shown here: Nc1nnc(-c2ccccc2O)cc1N1CCCN(c2ccnc(C#CCNC(=O)c3cc4ncccn4n3)n2)CC1 What is its recorded DC50?
50 to 500 nM

Consider the compound shown here: Nc1nnc(-c2ccccc2O)cc1OC1CC2CN(c3ccnc(C#CCN4CCC4)n3)CC2C1 (stereo not shown) What is its recorded DC50?
50 to 500 nM

---

target: SMARCA4-HiBiT HeLa cells (protein which is expressed from the SMARCA4 gene) (Homo sapiens, UniProt P51532); construct: protein which is expressed from the SMARCA2 and SMARCA4 genes; host or cells: HeLa (SMARCA4-HiBiT engineered line); experiment: SMARCA4 degradation assay (HiBiT-fusion HeLa cell line, 24 h, luminescence); format: cell-based
Sequence (P51532 whole entry, the tested form may be a part): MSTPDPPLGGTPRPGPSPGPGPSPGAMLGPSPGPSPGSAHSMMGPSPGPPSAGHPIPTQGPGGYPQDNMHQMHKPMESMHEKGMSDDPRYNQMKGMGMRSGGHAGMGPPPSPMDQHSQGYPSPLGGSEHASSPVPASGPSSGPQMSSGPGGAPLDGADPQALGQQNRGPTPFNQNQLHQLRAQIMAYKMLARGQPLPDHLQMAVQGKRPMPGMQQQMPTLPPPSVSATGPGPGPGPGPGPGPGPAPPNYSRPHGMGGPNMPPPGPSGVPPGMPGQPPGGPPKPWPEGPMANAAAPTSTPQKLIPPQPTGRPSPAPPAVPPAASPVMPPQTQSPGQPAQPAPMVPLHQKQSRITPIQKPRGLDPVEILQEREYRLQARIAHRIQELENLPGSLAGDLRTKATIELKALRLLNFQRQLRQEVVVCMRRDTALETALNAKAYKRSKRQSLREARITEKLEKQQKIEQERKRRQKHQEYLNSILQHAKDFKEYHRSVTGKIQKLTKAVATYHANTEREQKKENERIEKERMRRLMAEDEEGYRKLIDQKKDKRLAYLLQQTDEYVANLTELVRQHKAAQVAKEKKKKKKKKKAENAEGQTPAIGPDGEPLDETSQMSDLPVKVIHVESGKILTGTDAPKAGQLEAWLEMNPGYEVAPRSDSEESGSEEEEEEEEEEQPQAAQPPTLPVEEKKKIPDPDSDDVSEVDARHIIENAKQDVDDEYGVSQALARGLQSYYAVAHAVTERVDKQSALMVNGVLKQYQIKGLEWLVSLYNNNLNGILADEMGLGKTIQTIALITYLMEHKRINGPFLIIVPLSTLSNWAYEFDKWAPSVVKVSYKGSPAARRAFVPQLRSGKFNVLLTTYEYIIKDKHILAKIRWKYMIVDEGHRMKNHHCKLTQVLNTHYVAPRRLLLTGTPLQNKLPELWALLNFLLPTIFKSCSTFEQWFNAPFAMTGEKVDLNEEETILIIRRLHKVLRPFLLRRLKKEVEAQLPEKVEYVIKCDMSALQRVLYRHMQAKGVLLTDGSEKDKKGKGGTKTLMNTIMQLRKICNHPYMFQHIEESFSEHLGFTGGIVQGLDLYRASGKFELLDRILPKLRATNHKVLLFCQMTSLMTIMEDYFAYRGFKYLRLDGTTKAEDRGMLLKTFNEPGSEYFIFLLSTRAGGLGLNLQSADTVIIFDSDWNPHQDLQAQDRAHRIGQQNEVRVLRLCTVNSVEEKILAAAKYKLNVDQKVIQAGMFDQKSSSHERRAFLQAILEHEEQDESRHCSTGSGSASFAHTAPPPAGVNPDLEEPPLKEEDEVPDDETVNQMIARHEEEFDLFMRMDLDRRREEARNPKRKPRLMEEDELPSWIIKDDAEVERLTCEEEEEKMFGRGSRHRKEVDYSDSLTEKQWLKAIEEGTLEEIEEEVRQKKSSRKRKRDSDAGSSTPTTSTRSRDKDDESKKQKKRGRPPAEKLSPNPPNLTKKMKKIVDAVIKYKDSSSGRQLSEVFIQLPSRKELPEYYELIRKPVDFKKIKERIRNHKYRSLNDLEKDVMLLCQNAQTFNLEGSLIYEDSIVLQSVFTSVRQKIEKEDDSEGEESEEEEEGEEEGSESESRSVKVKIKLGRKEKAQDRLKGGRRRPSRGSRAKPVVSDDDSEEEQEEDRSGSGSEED
DC50 reference

| compound | DC50 |
| --- | --- |
| CC1(F)CCN(CC#Cc2nccc(N3CC4CCC(C3)N4c3cc(-c4ccccc4O)nnc3N)n2)C1 (stereo not shown) [Compound P-193] | 50 to 500 nM |

Consider the compound shown here: Nc1nnc(-c2ccccc2O)cc1N1CC2CCC(C1)N2c1ccnc(C#CCNC(=O)c2cc3ncccn3n2)n1 [Compound P-119] What is its recorded DC50?
500 to 5000 nM

Consider the compound shown here: C[C@@H]1CCN(c2cc(-c3ccccc3O)nnc2N)CCN1c1ccc(C(F)(F)F)c(C#CCN(C)C)n1 [Compound P-395] What is its recorded DC50?
> 5000 nM

Consider the compound shown here: C[C@H](O)C#Cc1nccc(N2CCCN(c3cc(-c4ccccc4O)nnc3N)CC2)n1 [Compound P-321] What is its recorded DC50?
50 to 500 nM

---

target: SMARCA4-HiBiT HeLa cells (protein which is expressed from the SMARCA4 gene) (Homo sapiens); construct: protein which is expressed from the SMARCA2 and SMARCA4 genes; host or cells: HeLa (SMARCA4-HiBiT engineered line); experiment: SMARCA4 degradation assay (HiBiT-fusion HeLa cell line, 24 h, luminescence); type: cell-based; conditions: @ 1 μM
readoutType: inhibition at 1 µM

Consider the molecule shown here: NCC#Cc1nccc(N2CCC3(CC2)CCN(c2cc(-c4ccccc4O)nnc2N)CC3)n1 What is its recorded inhibition at 1 µM?
< 30%

Consider the molecule shown here: Cn1ccc(NCC#Cc2nccc(N3C4CCC3CN(c3cc(-c5ccccc5O)nnc3N)C4)n2)n1 What is its recorded inhibition at 1 µM?
30 to 70%

Consider the molecule shown here: Nc1nnc(-c2ccccc2O)cc1N1CC2CCC(C1)N2c1ccnc(C#CCN2CCCCC2)n1 What is its recorded inhibition at 1 µM?
30 to 70%

Consider the molecule shown here: Nc1nnc(-c2ccccc2O)cc1N1CCC2(CCN(c3ccnc(C#CCn4ccnc4)n3)CC2)C1 What is its recorded inhibition at 1 µM?
30 to 70%

Consider the molecule shown here: Nc1nnc(-c2ccccc2O)cc1N1CCN(c2ccnc(C#CCNC(=O)c3noc4ccccc34)n2)CC1 What is its recorded inhibition at 1 µM?
30 to 70%

Consider the molecule shown here: Cn1ccc(NCC#Cc2nccc(N3CC4CCC(C3)N4c3cc(-c4ccccc4O)nnc3N)n2)n1 What is its recorded inhibition at 1 µM?
30 to 70%

Consider the molecule shown here: Cc1cnc(C#CCN(C)C)nc1N1CCN(c2cc(-c3ccccc3O)nnc2N)CC[C@H]1C What is its recorded inhibition at 1 µM?
30 to 70%

Consider the molecule shown here: Nc1nnc(-c2ccccc2O)cc1N1CCCN(c2ccnc(C#CCNC(=O)NC3CCC3)n2)CC1 What is its recorded inhibition at 1 µM?
30 to 70%

Consider the molecule shown here: CC(C#Cc1nccc(N2CCN(c3cc(-c4ccccc4O)nnc3N)CC2)n1)NC(=O)c1cc2ncccn2n1 (stereo not drawn) What is its recorded inhibition at 1 µM?
30 to 70%

Consider the molecule shown here: CC(C)(C)OC(=O)N1CCN(CC#Cc2nccc(N3CCCN(c4cc(-c5ccccc5O)nnc4N)CC3)n2)CC1 What is its recorded inhibition at 1 µM?
30 to 70%

Consider the molecule shown here: Nc1nnc(-c2ccccc2O)cc1N1CC2CN(c3ccnc(C#CCNC(=O)c4cc5ncccn5n4)n3)C2C1 (stereo not drawn) What is its recorded inhibition at 1 µM?
30 to 70%
